# System Under Test: Melanin-concentrating hormone receptor 1 (Homo sapiens, UniProt Q99705)
# Sequence (Q99705 whole entry): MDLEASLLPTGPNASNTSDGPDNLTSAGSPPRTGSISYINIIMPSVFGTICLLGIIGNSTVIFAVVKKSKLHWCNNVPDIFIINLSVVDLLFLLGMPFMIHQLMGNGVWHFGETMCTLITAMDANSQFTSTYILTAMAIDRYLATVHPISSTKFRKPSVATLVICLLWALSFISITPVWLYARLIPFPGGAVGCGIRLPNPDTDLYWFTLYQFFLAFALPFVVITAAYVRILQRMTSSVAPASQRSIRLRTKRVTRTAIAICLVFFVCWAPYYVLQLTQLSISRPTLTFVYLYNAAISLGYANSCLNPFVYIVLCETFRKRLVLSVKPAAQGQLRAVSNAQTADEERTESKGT
# Test Protocol: Displacement of [125I]-MCH(4 to 19) from human MCHR1 expressed in CHO cell membranes after 1 hr liquid scintillation counting
Parameter: IC50 (nM)

Previously resolved entries follow.
                           structure_smiles  test_value
0  Cc1nn(C)c2ccc(-n3ccc(OCc4ccc(Cl)cc4)cc3=O)cc12          99
1  Cc1c2cc(-n3ccc(OCc4ccc(Cl)cc4)cc3=O)ccc2nn1C          35
2  Cc1c2cc(-n3ccc(OCc4cc(C(F)(F)F)cs4)cc3=O)ccc2nn1C          74
3  Cc1c2cc(-n3ccc(OCc4ccc(F)cc4)cc3=O)ccc2nn1C         110
4  Cc1c2cc(-n3ccc(OCc4ccc(C(F)(F)F)s4)cc3=O)ccc2nn1C         170
5  Cc1c2cc(-n3ccc(OCc4ccc(F)cc4)cc3=O)ccc2nn1C1CC1          43
6  Cc1c2cc(-n3ccc(OCc4nc(C(F)(F)F)cs4)cc3=O)ccc2nn1C         130
7  Cc1c(C2CC2)nn2ccc(-n3ccc(OCc4ccc(Cl)cc4)cc3=O)cc12          69

P. Cc1c2cc(-n3ccc(OCc4csc(C(F)(F)F)c4)cc3=O)ccc2nn1C
Q. Cn1c(C2CC2)cc2ccc(-n3ccc(OCc4ccc(Cl)cc4)cc3=O)cc21
Between P and Q , which one shows the larger IC50 value? To answer, give the label that identifies your chosen option. Q
(Q: 150 nM, P: 90 nM)
